Hey, just so you know, these numbers are from ChEMBL document CHEMBL1201862.

# Test system: K562
# assayProcedure: NCI tumour cell line growth inhibition, 48 h
Active and inactive are the calls of the source. No stated cut-off is given here; in the data, active = GI50 up to about 1.1 µM and inactive = higher.
assayReadout: GI50

Use the examples below as a reference point.
| compound | endpointValue |
| --- | --- |
| COc1cc2c(c(O)c1OC)C(O)C1CCC(=O)N1C2c1ccc2c(c1)OCO2 (centres undefined) | > 100 µM (inactive) |
| CN(C)c1ccc2nc(CC(O)(C(F)(F)F)C(F)(F)F)ccc2c1 | > 10 µM (inactive) |
| O=c1[nH]c(=O)n(COCCO)cc1-c1ccccc1 | > 100 µM (inactive) |

Query: Return reported GI50. Input compound: COc1ccc(C2=NN=C3C(c4ccccc4)=Nc4ccccc4N3C2)cc1
Result: 30.8 µM (inactive)
